pKi: −log10 of the molar value.
Values of pKi reported for Itk (Homo sapiens, UniProt Q08881) appear below.

Recorded results for 2 compounds are shown here.
chem.smiles | system | observed
CCN(C(=O)CC1CCCC1)c1nc(-c2c[nH]c3ncc(Br)cc23)cs1 | Itk (Homo sapiens, UniProt Q08881) | 5.30 to 6.30
O=C(CCNC(=O)OCc1ccccc1)Nc1nc(-c2c[nH]c3ncc(Br)cc23)cs1 | Itk (Homo sapiens, UniProt Q08881) | 5.30 to 6.30

// switching to the query compound
Lookup: Bench note: what pKi did O=C(CCc1ccccc1)Nc1nc(-c2c[nH]c3ncc(Br)cc23)cs1 show?
Found: 5.30 to 6.30
